Target: UniProt Q8ILY1
Test: Fluorescence-based high-throughput DNA polymerase assay (molecular beacon), primary screen and dose-response
Assay type: biochemical
Conditions: DRC-1; read at 90'; concentration 20
Description: The HT assay employs a molecular beacon, a stem-loop DNA template with a Cy3 dye and the Black Hole Quencher on the 3′ and 5′ ends of the DNA, respectively. Pf-apPOL concentration is based on a calculated absorptivity of ε280 = 56750 M^−1 cm^−1. […] To identify apPOL inhibitors we utilised our previously developed high-throughput DNA polymerase assay. […] The assay accurately recapitulates the kinetic behaviour of apPOL, as measured through more conventional low-throughput gel-based assays. […]
Reported % inhibition Apol 90' 20 values for a set of molecules

- molecule: "Nc1cc(Oc2ccc(O)c(N)c2)ccc1O"
  units-of-measure: "%"
  % inhibition Apol 90' 20: 48.9946
- molecule: "O=C1CSC2=NC3=C(CCc4ccccc43)C(c3cccs3)N12 (centres unmarked)"
  units-of-measure: "%"
  % inhibition Apol 90' 20: 35.5266
- molecule: "C#CC(C=CC)OC(=O)c1ccccc1C(=O)O (centres unmarked)"
  units-of-measure: "%"
  % inhibition Apol 90' 20: 30.9577
- molecule: "Cc1cccc(-c2noc(C(=O)NNC(=O)C(Cl)(Cl)Cl)n2)c1"
  units-of-measure: "%"
  % inhibition Apol 90' 20: 14.9894
- molecule: "CC(=O)OCC1=C(C(=O)[O-])N2C(=O)[C@@H](NC(=O)Cc3cccs3)[C@H]2SC1.[Na+]"
  units-of-measure: "%"
  % inhibition Apol 90' 20: 14.2955
- molecule: "Cc1cc2[nH]c(C(=O)Nc3ccc(F)cc3)c(CN3CCOCC3)c2s1"
  units-of-measure: "%"
  % inhibition Apol 90' 20: 29.567
- molecule: "COc1ccc(/C=C/c2cc(C(=O)O)c3ccccc3n2)cc1"
  units-of-measure: "%"
  % inhibition Apol 90' 20: 60.94
- molecule: "N#Cc1c(O)nc(N2CCCCC2)nc1-c1ccc2c(c1)OCO2"
  units-of-measure: "%"
  % inhibition Apol 90' 20: 45.0693

###

target: bacteriophage T4 DNA polymerase (Enterobacteria phage T4); construct: made in house; experiment: Counter-screen against bacteriophage T4 DNA polymerase; format: biochemical; conditions: DRC-2; 90'; concentration 2.5
Sequence (P04415 whole entry): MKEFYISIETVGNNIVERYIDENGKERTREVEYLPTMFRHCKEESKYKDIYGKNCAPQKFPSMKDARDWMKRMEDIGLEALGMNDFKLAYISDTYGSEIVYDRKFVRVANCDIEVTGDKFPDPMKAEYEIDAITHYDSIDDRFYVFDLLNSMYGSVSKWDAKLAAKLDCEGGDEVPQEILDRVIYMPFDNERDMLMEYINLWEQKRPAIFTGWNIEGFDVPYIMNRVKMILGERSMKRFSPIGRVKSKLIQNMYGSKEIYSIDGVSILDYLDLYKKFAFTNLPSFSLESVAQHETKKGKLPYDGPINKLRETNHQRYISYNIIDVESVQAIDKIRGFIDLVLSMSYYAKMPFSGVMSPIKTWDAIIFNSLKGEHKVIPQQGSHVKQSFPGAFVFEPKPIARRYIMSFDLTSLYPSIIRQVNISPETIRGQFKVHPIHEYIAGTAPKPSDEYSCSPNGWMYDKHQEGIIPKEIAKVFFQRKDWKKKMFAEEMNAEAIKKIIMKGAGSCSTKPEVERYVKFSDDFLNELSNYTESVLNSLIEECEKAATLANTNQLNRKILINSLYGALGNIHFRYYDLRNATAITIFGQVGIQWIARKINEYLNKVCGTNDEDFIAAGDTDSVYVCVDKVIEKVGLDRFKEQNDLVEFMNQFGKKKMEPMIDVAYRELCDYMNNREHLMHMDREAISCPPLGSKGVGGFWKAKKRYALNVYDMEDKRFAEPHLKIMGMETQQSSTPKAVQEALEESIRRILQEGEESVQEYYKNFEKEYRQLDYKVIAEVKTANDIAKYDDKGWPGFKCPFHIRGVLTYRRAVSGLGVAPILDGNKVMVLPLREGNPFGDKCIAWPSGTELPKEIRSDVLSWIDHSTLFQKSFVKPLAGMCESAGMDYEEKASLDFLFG

- compound: "CC(C)(C)OC(=O)COc1ccc2cc(-c3ccccc3)c(=O)oc2c1 [Molecule 81]"
  % inhibition T4 90' (%): 16
- compound: "CCCCC(=O)N1CCc2c(nc3cc(-c4ccccc4Cl)[nH]n3c2=O)C1 [Molecule 37]"
  % inhibition T4 90' (%): 5
- compound: "Cl.NC(CO)C(=O)NNCc1ccc(O)c(O)c1O (centres unmarked) [KU0260493]"
  % inhibition T4 90' (%): -11
- compound: "O=c1[nH]c2ccc([N+](=O)[O-])cc2c(-c2ccccc2)c1Sc1nc2ccccc2o1 [KU0067471]"
  % inhibition T4 90' (%): 11
- compound: "O=[N+]([O-])c1ccc(/C=C/c2ccc3ccccc3n2)o1 [Molecule 21, O=N(=O)c1ccc(o1)/C=C/c1ccc2c(n1)cccc2]"
  % inhibition T4 90' (%): 23
- compound: "COc1cccc(C(=O)N2CCc3c(nc4cc(-c5ccccc5)[nH]n4c3=O)C2)c1OC [Molecule 22]"
  % inhibition T4 90' (%): -11
- compound: "CCOC(=O)C1=C2c3cc(OC)c(OC)cc3CC(C)(C)N2C(=O)C1=O [KU0193659]"
  % inhibition T4 90' (%): 8
- compound: "CC(NC(=O)Cc1cc(=O)[nH]c(SCc2cccc(Cl)c2)n1)c1ccccc1 (centres unmarked) [Molecule 67]"
  % inhibition T4 90' (%): -9
- compound: "COc1ccc(-c2n[nH]cc2Oc2ccc(Cl)cc2)c(O)c1 [KU0029837]"
  % inhibition T4 90' (%): -22
- compound: "Cc1nc(/N=N/c2ccc(C(=O)[O-])cc2)c(COP(=O)([O-])[O-])c(C=O)c1O.[Na+].[Na+].[Na+] [KU0261395]"
  % inhibition T4 90' (%): -20
- compound: "O=C(NC(C(Cl)Cl)S(=O)(=O)c1ccccc1)c1ccccc1 (centres unmarked) [KU0045239]"
  % inhibition T4 90' (%): -26
- compound: "CCC(C)NC(=O)c1cc(NC(C)=O)cc2nc(C)ccc12 (centres unmarked) [KU0206314]"
  % inhibition T4 90' (%): 13
- compound: "Cc1ccc(-n2nnc(C(=O)O)c2-c2ccccn2)c(F)c1 [Molecule 54, Cc1ccc(c(c1)F)n1nnc(c1c1ccccn1)C(=O)O]"
  % inhibition T4 90' (%): 17
- compound: "O=C(CSc1nnc(-c2ccco2)[nH]1)c1ccc(Cl)cc1 [KU0029065]"
  % inhibition T4 90' (%): -13

###

target: UniProtKB Q8ILY1; experiment: Fluorescence-based high-throughput DNA polymerase assay (molecular beacon), primary screen and dose-response; assay type: biochemical; settings: DRC-1; 90'; concentration 2.5
measure: % inhibition Apol 90'

- compound: "COc1cc(Cl)c(C)cc1NC(=O)Cn1ccc2c(=O)[nH]ccc21"
  value-measured: "-1.924%"
- compound: "O=C(NCC1CCN(C2CCCC2)CC1)C(=O)NC1CCCC1"
  value-measured: "3.739%"
- compound: "Cc1ccc2c(C(=O)NCCc3cccnc3)cc(NC(=O)C(C)C)cc2n1"
  value-measured: "-0.2653%"
- compound: "CSC1=C(C#N)C(=C(C#N)C#N)NC(c2ccccc2)=N1 [Molecule 2, CSc1nc([nH]c(=C(C#N)C#N)c1C#N)c1ccccc1]"
  value-measured: "8.793%"
- compound: "O=C(Cn1ccc2c(=O)[nH]ccc21)Nc1cc(F)ccc1F [Molecule 42, O=C(Cn1ccc2c1cc[nH]c2=O)Nc1cc(F)ccc1F]"
  value-measured: "-3.25%"
- compound: "COc1cc(NC(=O)c2ccccc2)c(OC)cc1NC(=O)Cc1cccs1"
  value-measured: "2.9%"
- compound: "CC(=O)c1cc2c(N)c(/C(N)=N/C#N)sc2nc1C"
  value-measured: "-0.6957%"
- compound: "O=C(O)CCS(=O)(=O)c1ccc(-c2ccc(S(=O)(=O)CCC(=O)O)cc2)cc1"
  value-measured: "7.663%"

###

biological target: P. falciparum apicoplast DNA polymerase (Pf-apPOL) (Plasmodium falciparum); test: Fluorescence-based high-throughput DNA polymerase assay (molecular beacon), primary screen and dose-response; format: biochemical; settings: DRC-2; 5'; concentration 80
Sequence (Q8ILY1 entry or part of it): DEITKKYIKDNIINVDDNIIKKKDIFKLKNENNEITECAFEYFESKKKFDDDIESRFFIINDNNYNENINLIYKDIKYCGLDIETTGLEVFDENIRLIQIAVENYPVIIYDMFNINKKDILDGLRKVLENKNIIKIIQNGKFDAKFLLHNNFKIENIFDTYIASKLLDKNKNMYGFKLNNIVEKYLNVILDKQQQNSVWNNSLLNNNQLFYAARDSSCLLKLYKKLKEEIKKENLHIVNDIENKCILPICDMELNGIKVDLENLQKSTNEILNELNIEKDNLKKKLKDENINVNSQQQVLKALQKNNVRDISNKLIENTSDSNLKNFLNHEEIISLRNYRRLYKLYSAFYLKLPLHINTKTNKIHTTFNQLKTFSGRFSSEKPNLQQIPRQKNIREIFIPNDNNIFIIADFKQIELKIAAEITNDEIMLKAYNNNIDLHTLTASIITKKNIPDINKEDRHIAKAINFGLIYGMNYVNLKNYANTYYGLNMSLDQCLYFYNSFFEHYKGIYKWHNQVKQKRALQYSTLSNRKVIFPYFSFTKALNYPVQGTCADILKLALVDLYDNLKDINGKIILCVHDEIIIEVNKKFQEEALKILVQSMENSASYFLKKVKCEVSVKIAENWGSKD
% inhibition Apo pol 5' below 40% gives False; % inhibition Apo pol 5' at or above it gives True.

- compound: "CCCCc1ccc(NC(=O)CSc2nc(O)c(C#N)c(C3CCCCC3)n2)c(C)c1 [Molecule 8]"
  classification: "True"
- compound: "COc1cccc(C(=O)N2CCc3c(nc4cc(-c5ccccc5)[nH]n4c3=O)C2)c1OC [Molecule 22]"
  classification: "True"
- compound: "CC1(C)CC(=O)C2=C(C1)OC1=C(C(=O)CC(C)(C)C1)C2c1ccc(O)cc1 [KU0194226]"
  classification: "False"
- compound: "Oc1cccc2ccc(/C=C/c3ccc4c(c3)OCO4)nc12 [KU0025984]"
  classification: "True"
- compound: "COc1ccc(-c2cc(=O)c3cc(O)ccc3o2)cc1OC [KU0193655]"
  classification: "True"
- compound: "C#CC(C=CC)OC(=O)c1ccccc1C(=O)O (stereo not drawn) [Molecule 61, CC=CC(OC(=O)c1ccccc1C(=O)O)C#C]"
  classification: "True"
- compound: "O=C1c2ccccc2C(=O)N1Oc1ccc([N+](=O)[O-])c([N+](=O)[O-])c1 [Molecule 66]"
  classification: "True"
- compound: "CCCCSc1nnc2c(n1)OC(c1ccc([N+](=O)[O-])o1)Nc1ccccc1-2 (stereo not drawn) [KU0065811]"
  classification: "False"
- compound: "COCC(=O)Nc1c(-c2cccc(F)c2)nc2cc(C)ccn12 [Molecule 44, COCC(=O)Nc1c(nc2n1ccc(c2)C)c1cccc(c1)F]"
  classification: "True"
- compound: "CCOc1nc2cccc(C(=O)OC(C)OC(=O)OC3CCCCC3)c2n1Cc1ccc(-c2ccccc2-c2nnn[nH]2)cc1 (stereo not drawn) [Molecule 94]"
  classification: "True"
- compound: "O=[N+]([O-])/C=C/c1ccc(-c2ccc(Br)cc2)o1 [Molecule 31, O=N(=O)/C=C/c1ccc(o1)c1ccc(cc1)Br]"
  classification: "False"
- compound: "O=C(Nc1cccc(C(=O)Nc2ccc(S(=O)(=O)[O-])c3cc(S(=O)(=O)[O-])cc(S(=O)(=O)[O-])c23)c1)Nc1cccc(C(=O)Nc2ccc(S(=O)(=O)[O-])c3cc(S(=O)(=O)[O-])cc(S(=O)(=O)[O-])c23)c1.[Na+].[Na+].[Na+].[Na+].[Na+].[Na+] [Molecule 39]"
  classification: "True"
- compound: "CSC1=C(C#N)C(=C(C#N)C#N)NC(c2ccccc2)=N1 [Molecule 2, CSc1nc([nH]c(=C(C#N)C#N)c1C#N)c1ccccc1]"
  classification: "True"
- compound: "CN(C)C1C(c2ccccc2)=C(c2ccccc2)SC(c2ccccc2)C1[N+](=O)[O-] (stereo not drawn) [KU0268387]"
  classification: "True"
- compound: "Cc1nn(CC(=O)NCCSCc2ccco2)c(C)c1Br [KU0267182]"
  classification: "True"
- compound: "O=C(Cn1ccc2c(=O)[nH]ccc21)Nc1cccc(Cl)c1 [Molecule 23, O=C(Cn1ccc2c1cc[nH]c2=O)Nc1cccc(c1)Cl]"
  classification: "False"
- compound: "Cc1ccc(CCNC(=O)c2cnn3c(O)c(Cc4ccccc4F)c(C)nc23)cc1 [KU0097142]"
  classification: "True"
- compound: "CC(C)(C)c1cc(C(=O)C(C#N)=NNc2cccc(Cl)c2)no1 [Molecule 98]"
  classification: "True"
- compound: "Cc1ccc(C)c(CSc2nc(C3CCCCC3)c(C#N)c(=O)[nH]2)c1 [Molecule 6]"
  classification: "True"
- compound: "C=CC1=C(C)c2cc3[nH]c(cc4nc(cc5[nH]c(cc1n2)c(C)c5CCC(=O)O)C(CCC(=O)O)=C4C)c(C)c3C=C [Molecule 91]"
  classification: "True"
- compound: "OC(C#Cc1ccccc1)c1ccco1 (stereo not drawn) [Molecule 95, OC(c1ccco1)C#Cc1ccccc1]"
  classification: "False"
- compound: "Cc1cc(C)c2c(c1)C1C=CCC1C(c1ccc(C(=O)O)cc1)N2 (stereo not drawn) [Molecule 102]"
  classification: "True"
- compound: "COc1ccc2c(c1)C(c1ccccc1OC)CC(=O)O2 (stereo not drawn) [Molecule 38, COc1ccc2c(c1)C(CC(=O)O2)c1ccccc1OC]"
  classification: "True"
- compound: "O=c1cc(CN2CCCCC2)c2cc3c(cc2o1)OCO3 [Molecule 56, O=c1cc(CN2CCCCC2)c2c(o1)cc1c(c2)OCO1]"
  classification: "True"
- compound: "O=C(NNC(=O)c1ccc(Cl)cc1)C(=O)NNC(=O)c1ccc(Cl)cc1 [Molecule 25]"
  classification: "True"
- compound: "O=C(c1ccccc1)N1CCc2c(nc3cc(-c4ccccc4)[nH]n3c2=O)C1 [Molecule 30]"
  classification: "False"
- compound: "Cc1ccc(NC(=O)Cn2ccc3c(=O)[nH]ccc32)cc1F [Molecule 48, O=C(Cn1ccc2c1cc[nH]c2=O)Nc1ccc(c(c1)F)C]"
  classification: "False"
- compound: "Cc1ccc(NC(=O)C2CCN(C(=O)c3cc4ccsc4[nH]3)CC2)c(Br)c1 [Molecule 14]"
  classification: "True"
- compound: "Cc1ccccc1C(=O)N1CCc2c(nc3cc(-c4ccccc4)[nH]n3c2=O)C1 [Molecule 41]"
  classification: "False"
